assay: Half life in C57 mouse at 10 mg/kg, po; format: ADME, organism-based; design: dose 10 mg/kg, route oral; conditions: in vivo
Property Name: half-life (h)
Report the value in h with no unit label.

q: For `CS(=O)(=O)c1cccc(-c2cccc(-c3ccnc4c(C(F)(F)F)cccc34)c2)c1` , what is its reported half-life?
a: 13.9

---

assay: AUC (0 to infinity) in C57 mouse at 10 mg/kg, po; assay type: ADME, organism-based; parameters: time infinity, dose 10 mg/kg, route oral; conditions: plasma
Property Name: AUC(0-inf) (ng·h/mL)
Give the number; ng·h/mL is assumed, so skip it.

q: Give the measured AUC(0-inf) of `CS(=O)(=O)c1cccc(-c2cccc(-c3ccnc4c(C(F)(F)F)cccc34)c2)c1` .
a: 3010

---

assay: Tmax in C57 mouse at 10 mg/kg, po; type: ADME, organism-based; parameters: dose 10 mg/kg, route oral; conditions: in vivo
Property Name: Tmax (h)
Numbers only here, please. The scale is h.

q: For the compound shown here, `CS(=O)(=O)c1cccc(-c2cccc(-c3ccnc4c(C(F)(F)F)cccc34)c2)c1` , give the reported Tmax.
a: 1

---

test: Cmax in C57 mouse at 10 mg/kg, po; assay type: ADME, organism-based; design: dose 10 mg/kg, route oral; settings: in vivo
Property Name: Cmax (ng/mL)
Give just the number in ng/mL; leave the unit off.

q: Consider the molecule shown here: `CS(=O)(=O)c1cccc(-c2cccc(-c3ccnc4c(C(F)(F)F)cccc34)c2)c1` What is its recorded Cmax?
a: 106

---

So I've got a bunch of molecules here, and I need their half-life values.
test: Half life in rat liver microsome; type: ADME; conditions: liver microsomes

q: Requested field: half-life. Item: `Cc1cnc2c(C(F)(F)F)cccc2c1-c1cccc(-c2cc(S(C)(=O)=O)c(F)cc2F)c1`
a: > 30 min

q: Same lookup for `CS(=O)(=O)c1cc(-c2cccc(-c3ccnc4c(C(F)(F)F)cccc34)c2)ccc1F` , please.
a: 12 min

q: Input `Cc1cnc2c(C(F)(F)F)cccc2c1-c1cccc(-c2cccc(S(C)(=O)=O)c2)c1`
a: > 30 min

q: Try this molecule next: `CS(=O)(=O)c1cccc(-c2cccc(-c3ccnc4c(C(F)(F)F)cccc34)c2)c1`
a: > 30 min

q: Follow-up entry: `CCCc1cnc2c(C(F)(F)F)cccc2c1-c1cccc(-c2cccc(S(C)(=O)=O)c2)c1`
a: > 30 min

q: Another: `CCc1cnc2c(C(F)(F)F)cccc2c1-c1cccc(-c2cccc(S(C)(=O)=O)c2)c1`
a: > 30 min

q: What about `CS(=O)(=O)c1cc(-c2cccc(-c3ccnc4c(C(F)(F)F)cccc34)c2)c(F)cc1F` ?
a: > 30 min

q: Try `Cc1cnc2c(C(F)(F)F)cccc2c1-c1cccc(-c2ccc(S(C)(=O)=O)cc2)c1` next.
a: > 30 min

---

molecular target: Oxysterols receptor LXR-beta (Homo sapiens, UniProt P55055)
Sequence (P55055 whole entry): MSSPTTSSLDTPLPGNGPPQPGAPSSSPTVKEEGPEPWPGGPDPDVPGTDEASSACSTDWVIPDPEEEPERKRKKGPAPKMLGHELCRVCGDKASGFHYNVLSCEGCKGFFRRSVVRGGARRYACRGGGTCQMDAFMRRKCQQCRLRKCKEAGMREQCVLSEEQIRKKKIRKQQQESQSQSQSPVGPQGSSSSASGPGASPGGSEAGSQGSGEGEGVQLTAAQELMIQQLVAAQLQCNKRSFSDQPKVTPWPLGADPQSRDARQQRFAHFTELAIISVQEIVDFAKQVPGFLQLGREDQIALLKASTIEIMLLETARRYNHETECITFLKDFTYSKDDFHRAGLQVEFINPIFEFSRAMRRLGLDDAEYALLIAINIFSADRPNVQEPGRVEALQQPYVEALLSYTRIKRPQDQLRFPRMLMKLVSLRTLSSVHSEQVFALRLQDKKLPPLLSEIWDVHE
pIC50: −log10 of the molar value.
Property Name: pIC50

q: pIC50 for `CS(=O)(=O)c1ccc(-c2cccc(-c3ccnc4c(C(F)(F)F)cccc34)c2)cc1` ?
a: < 6.00

---

assay: Oral bioavailability in C57 mouse at 10 mg/kg; type: ADME, organism-based; conditions: in vivo
Property Name: bioavailability (%)
Give the quantity in %, number only.

q: Consider the compound shown here: `CS(=O)(=O)c1cccc(-c2cccc(-c3ccnc4c(C(F)(F)F)cccc34)c2)c1` What is its recorded bioavailability?
a: 100
